Entries and their pKi values follow.
Molecular target: rhPSMA (Homo sapiens, UniProt Q04609)
Construct: purchased R&D research
Sequence (Q04609 whole entry): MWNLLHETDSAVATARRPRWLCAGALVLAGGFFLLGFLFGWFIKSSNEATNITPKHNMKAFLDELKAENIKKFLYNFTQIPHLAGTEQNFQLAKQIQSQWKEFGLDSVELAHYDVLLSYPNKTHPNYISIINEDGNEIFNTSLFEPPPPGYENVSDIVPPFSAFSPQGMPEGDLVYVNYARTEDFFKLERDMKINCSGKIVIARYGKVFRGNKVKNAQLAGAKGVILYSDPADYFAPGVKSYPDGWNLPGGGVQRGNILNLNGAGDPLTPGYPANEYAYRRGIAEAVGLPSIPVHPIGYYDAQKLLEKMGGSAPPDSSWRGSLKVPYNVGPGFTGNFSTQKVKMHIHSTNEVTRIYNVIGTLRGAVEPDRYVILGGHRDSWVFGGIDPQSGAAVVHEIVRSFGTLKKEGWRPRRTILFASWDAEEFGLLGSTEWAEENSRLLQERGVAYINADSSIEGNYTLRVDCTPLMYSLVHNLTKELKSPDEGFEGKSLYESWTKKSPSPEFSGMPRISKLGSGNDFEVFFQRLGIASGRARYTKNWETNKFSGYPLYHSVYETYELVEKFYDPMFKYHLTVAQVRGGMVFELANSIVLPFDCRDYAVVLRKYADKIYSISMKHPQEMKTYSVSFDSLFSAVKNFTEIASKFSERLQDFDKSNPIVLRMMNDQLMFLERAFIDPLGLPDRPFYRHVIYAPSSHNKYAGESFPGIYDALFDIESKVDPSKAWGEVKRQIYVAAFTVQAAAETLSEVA
Assay: PSMA inhibition assay
Type: biochemical
Settings: enzyme-based inhibition assay; read-out: average Ki
pKi: −log10 of the molar value.
outcomeMeasure: pKi

INSERT INTO results (compound, testedsystem, outcomemeasure, measured) VALUES
  ('NOCC(=O)NCCOCCOCCNC(=O)c1ccc(C(=O)NCCOCCOCCNC(=O)CCCCCCCNC(=O)CCC(NC(=O)NC(CCC(=O)O)C(=O)O)C(=O)O)cc1 (centres unmarked) [P-Phthal]', 'rhPSMA (Homo sapiens, UniProt Q04609)', 'pKi', 8.70),
  ('NOCC(=O)NCCOCCOCCOCCNC(=O)c1ccc(C(=O)NCCCCCCc2cn(CCCC[C@H](NC(=O)N[C@@H](CCC(=O)O)C(=O)O)C(=O)O)nn2)cc1 [P-TriA]', 'rhPSMA (Homo sapiens, UniProt Q04609)', 'pKi', 11.32);
